Where do the numbers come from? From PubChem BioAssay AID652126.

This section presents compounds with their documented activation values.
System: Nuclear hormone receptor DAF-12 (Strongyloides stercoralis)
protocol: S. stercoralis DAF-12 nuclear receptor activators, primary screen, cell-based, luminescence, HEK293, GRIP1 co-expression, lit1-tk-luc (AID 652126);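 note: 0% = DMSO-only wells and 100% = 3 µM delta7-dafachronic acid wells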
reported-conditions: HEK293 ssDAF-12/GRIP1 lit1-tk-luc reporter, at 6.8 µM, hits give high values, % of 3 µM dafachronic acid response
Screen size: about 370,000 compounds; about 3,700 (1%) were called active. Many of the other results were omitted from the sample, so actives are more common in it than they were.
Give the number; % is assumed, so skip it.

compound | endpoint | observed
NC(c1csc(NC(=O)Nc2cccc(C(F)(F)F)c2)n1)C1CCCCC1 (stereo not drawn) | activation | -0.46
CC(c1c[nH]c2ccccc12)c1c(-c2ccccc2)n(C)c2ccccc12 (stereo not drawn) | activation | -0.45

Fill blank: measured activation of the compound `CCCc1nc2c3ccccc3ccn2c1Cc1ccccc1C(F)(F)F` is ____. 1.29

Fill blank: measured activation of the compound `Cc1cccc(C(=O)Nc2c(-c3ccc(F)cc3)nc3ncccn23)c1` is ____. -1.19

Fill blank: measured activation of the compound `COc1cccc(N(C)C(=O)[C@@H](C)[C@@H](O)c2ccc3ccccc3c2)c1` is ____. -1.07

Fill blank: measured activation of the compound `O=C(Nc1ccc(Cl)cc1)Nc1ccc(Oc2cccnc2)nc1` is ____. -1.82

Fill blank: measured activation of the compound `O=C(CSc1nnc(-c2ccccn2)n1-c1ccc(Cl)cc1)Nc1ccccc1-c1ccccc1` is ____. -1.33

Fill blank: measured activation of the compound `O=C1CC[C@@]23CCCN2C(=O)CCC[C@H]3[C@H]1Cc1ccccc1` is ____. -1.31

Fill blank: measured activation of the compound `Fc1ccc2nc(-c3ccccc3)nc(SCc3nnc(-c4ccccc4)o3)c2c1` is ____. 1.48

Fill blank: measured activation of the compound `Cc1ccc(-n2cc3ccc([N+](=O)[O-])cc3n2)cc1` is ____. 1.77

Fill blank: measured activation of the compound `COC1=C[C@H](C(=O)NCCNC(C)=O)[C@H](C)[C@@H](c2ccccc2)CC1=O` is ____. -1.26

Fill blank: measured activation of the compound `C[C@H](C(=O)N(C)c1ccccc1)[C@@H](O)c1ccc(Cl)cc1` is ____. -1.24

Fill blank: measured activation of the compound `CSc1nc(C)nc(C2CC2)c1C#N` is ____. -1.49

Fill blank: measured activation of the compound `Cc1ccc(NC(=O)Nc2cccnc2)cc1` is ____. 1.08

###

Test system: Nuclear hormone receptor DAF-12 (Strongyloides stercoralis)
protocol: S. stercoralis DAF-12 nuclear receptor activators, primary screen, cell-based, luminescence, HEK293, GRIP1 co-expression, lit1-tk-luc (AID 652126);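 note: 0% = DMSO-only wells and 100% = 3 µM delta7-dafachronic acid wells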
reported-conditions: HEK293 ssDAF-12/GRIP1 lit1-tk-luc reporter, at 6.8 µM, hits give high values, % of 3 µM dafachronic acid response
The whole screen tested about 370,000 compounds, of which about 3,700 (1%) were called active. The sample as a whole holds a higher share of actives than the screen did.
This section presents molecules with their documented activation values.
Give the number; % is assumed, so skip it.

Fill blank: measured activation of the molecule CC(c1ccccn1)N(C)C(=O)c1ccc2nc(Cc3cccc(Cl)c3)oc2c1 (stereo not given) is ____. 0.07

Fill blank: measured activation of the molecule `COc1ccc(Cc2nc3ccc(C(=O)NCC4CCOCC4)cc3o2)cc1OC` is ____. -0.41

Fill blank: measured activation of the molecule CCOC(=O)C1=C(C)NC2=C(C(=O)CC(C)(C)C2)C1c1ccc2c(c1)OCO2 (stereo not given) is ____. -1.32

Fill blank: measured activation of the molecule `O=c1c2c(nc3cc(-c4cccc(Cl)c4)[nH]n13)CCCC2` is ____. 1.57

Fill blank: measured activation of the molecule `O=S(=O)(c1ccc2c(c1)OCCCO2)N1CCN(S(=O)(=O)c2c(F)cccc2F)CC1` is ____. -0.38

###

Tested on: Nuclear hormone receptor DAF-12 (Strongyloides stercoralis)
protocol: S. stercoralis DAF-12 nuclear receptor activators, primary screen, cell-based, luminescence, HEK293, GRIP1 co-expression, lit1-tk-luc (AID 652126);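 note: 0% = DMSO-only wells and 100% = 3 µM delta7-dafachronic acid wells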
reported-conditions: HEK293 ssDAF-12/GRIP1 lit1-tk-luc reporter, at 6.8 µM, hits give high values, % of 3 µM dafachronic acid response
The campaign covered roughly 370,000 compounds. About 3,700 (1%) were called active. This excerpt belongs to a sample that is enriched for actives.
endpoint: activation (%)
Give the number; % is assumed, so skip it.

compound | unit-of-measure | observed
Cc1cc(C)nc(NC(=S)N2CCN(c3ccc(C(F)(F)F)cn3)CC2)c1 | % | -1.63

Item: N#Cc1c(NC(=O)C2CCCO2)sc2c1CCCCC2 (stereo unspecified) Test system: Nuclear hormone receptor DAF-12 (Strongyloides stercoralis) Read-out: activation Value: ? 2.81

Item: `CC1=C(N2CCN(c3ncccn3)CC2)CCC1=O` Test system: Nuclear hormone receptor DAF-12 (Strongyloides stercoralis) Read-out: activation Value: ? -1.32

Item: COc1ccc(C2CC(c3cccs3)=NN2c2nc(C)c(C(C)=O)s2)cc1OC (stereo unspecified) Test system: Nuclear hormone receptor DAF-12 (Strongyloides stercoralis) Read-out: activation Value: ? -0.94

Item: `N#Cc1c(NC(=O)c2ccc(N3CCOCC3)c([N+](=O)[O-])c2)sc2c1CCCC2` Test system: Nuclear hormone receptor DAF-12 (Strongyloides stercoralis) Read-out: activation Value: ? -1.7

Item: CCC1CCc2c(sc(NC(C)=O)c2C#N)C1 (stereo unspecified) Test system: Nuclear hormone receptor DAF-12 (Strongyloides stercoralis) Read-out: activation Value: ? -1.82

###

This section presents compounds with their documented activation values.
System: Nuclear hormone receptor DAF-12 (Strongyloides stercoralis)
protocol: S. stercoralis DAF-12 nuclear receptor activators, primary screen, cell-based, luminescence, HEK293, GRIP1 co-expression, lit1-tk-luc (AID 652126);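 note: 0% = DMSO-only wells and 100% = 3 µM delta7-dafachronic acid wells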
reported-conditions: HEK293 ssDAF-12/GRIP1 lit1-tk-luc reporter, at 6.8 µM, hits give high values, % of 3 µM dafachronic acid response
In all, about 370,000 compounds went through this assay and about 3,700 (1%) were called active. Only a selection was taken, and actives are over-represented in it overall.
Give the number; % is assumed, so skip it.

Fill blank: measured activation of the compound `COc1ccccc1-c1nnc(NC(=O)c2cccc(N3C(=O)CCC3=O)c2)o1` is ____. 1.57

Fill blank: measured activation of the compound O=S1(=O)CC(N2CCN(CCO)CC2)CN1Cc1cn(Cc2ccc(Cl)cc2)nn1 (stereo not given) is ____. -0.54

Fill blank: measured activation of the compound CCC(=O)c1c(CC)c2n3c1=CC[C@H]3CC(Br)C=2 (stereo not given in full) is ____. -1.9

Fill blank: measured activation of the compound `O=C(Nc1nnc(-c2ccccc2)o1)c1cccc(S(=O)(=O)N2CCOCC2)c1` is ____. -0.75

Fill blank: measured activation of the compound `CSc1nc2nc3c(c(=O)n2[nH]1)CCC3` is ____. -1.17

Fill blank: measured activation of the compound `COc1ccc(-c2cc(-c3nnc(SCc4ccc([N+](=O)[O-])cc4)n3N)[nH]n2)cc1` is ____. -0.73

Fill blank: measured activation of the compound `COc1ccccc1-c1nnc(NC(=O)c2ccc3ncsc3c2)o1` is ____. 0.27

Fill blank: measured activation of the compound `COc1cccc(CSc2nnc(-c3cccnc3)n2Cc2ccccc2)c1` is ____. -1.73

Fill blank: measured activation of the compound `Cc1nc(CNc2ncnc3ccc(-c4ccc5c(c4)OCO5)cc23)cs1` is ____. -1.38

Fill blank: measured activation of the compound CCCOc1ccc(NC(=O)CC2C(=O)N(C)C(=S)N2Cc2ccc3c(c2)OCO3)cc1 (stereo not given) is ____. -1.45

###

System: Nuclear hormone receptor DAF-12 (Strongyloides stercoralis)
protocol: S. stercoralis DAF-12 nuclear receptor activators, primary screen, cell-based, luminescence, HEK293, GRIP1 co-expression, lit1-tk-luc (AID 652126);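 note: 0% = DMSO-only wells and 100% = 3 µM delta7-dafachronic acid wells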
reported-conditions: HEK293 ssDAF-12/GRIP1 lit1-tk-luc reporter, at 6.8 µM, hits give high values, % of 3 µM dafachronic acid response
Among all 370,000 compounds or so, about 3,700 (1%) were called active. What follows is part of a selection rich in actives, with near analogues and random picks from the rest.
This section presents compounds with their documented activation values.
Give the number; % is assumed, so skip it.

compound | system-name | activation / %
Cc1ccc(C)c(NC(=O)CCS(=O)(=O)c2ccccc2)c1 | Nuclear hormone receptor DAF-12 (Strongyloides stercoralis) | -0.72
CN(C)CCNC(=O)c1ccc(Cl)c2cc3ccccc3nc12 | Nuclear hormone receptor DAF-12 (Strongyloides stercoralis) | 2.74
Cc1ccnc(Nc2nc3ccccc3s2)n1 | Nuclear hormone receptor DAF-12 (Strongyloides stercoralis) | 1.25
O=C(NCc1ccco1)C1CCCN(S(=O)(=O)c2ccc(Cl)s2)C1 (configuration not stated) | Nuclear hormone receptor DAF-12 (Strongyloides stercoralis) | 0
O=C(NCCCNC(=O)c1ccccc1Cl)c1cnccn1 | Nuclear hormone receptor DAF-12 (Strongyloides stercoralis) | -0.77
O=C(Nc1ccccc1[N+](=O)[O-])C1C(c2ccccc2)=C1c1ccccc1 | Nuclear hormone receptor DAF-12 (Strongyloides stercoralis) | -1.13
COc1cccc(NC(=O)CC2C(=O)NCCN2C(=S)Nc2ccc(F)cc2)c1 (configuration not stated) | Nuclear hormone receptor DAF-12 (Strongyloides stercoralis) | -1.35
Cc1cc(NC(=O)Nc2ccccc2[N+](=O)[O-])no1 | Nuclear hormone receptor DAF-12 (Strongyloides stercoralis) | 0.25

Fill blank: measured activation of the compound `Cc1c[nH]c2cccc(-c3ccc(Cl)cc3)c12` is ____. -0.3

Fill blank: measured activation of the compound `c1ccc(-c2cc(-c3ccccc3)[nH]n2)cc1` is ____. 2.27
